Recorded TGI values for a group of molecules are listed next.
System: K-562 leukemia
Assay: NCI tumour cell line growth inhibition, 48 h

Consider the following illustrative entries.
Cc1nc2c(n1C(C)(C)C)C(=O)c1ccccc1C2=O | > 100 µM
O=C1C[C@@H]2C(COC(=O)c3ccccc3)N(OCc3ccccc3)C[C@@H]2O1 (stereo not given in full) | > 100 µM
CCOC(=O)N1CCN(c2ccc3c(C)cc(C)nc3n2)CC1 | > 100 µM

Q: Quick check: TGI of "Cc1cc(CNC(=O)OCc2ccccc2)c(C)c2c1Oc1ccccc1O2" ?
A: > 100 µM

Q: Quick check: TGI of "COC(=O)c1cc(NC(=O)c2cc(NC(=O)c3cc([N+](=O)[O-])cn3C)cn2C)cn1C" ?
A: > 100 µM

Q: Quick check: TGI of "Cc1cc(C)c(C[N+](C)(C)C)c(C)c1C" ?
A: > 100 µM

Q: Quick check: TGI of "[Se]=P(c1ccccc1)(c1ccccc1)c1ccc(C(c2ccccc2)=P(c2ccccc2)(c2ccccc2)c2ccccc2)cc1" ?
A: 3.33 µM

Q: Quick check: TGI of "NC(=Nc1ccc(O)cc1)S(=O)(=O)O" ?
A: > 100 µM

Q: Quick check: TGI of Nc1nc2c(c(=O)[nH]1)N(C=O)C(CNc1ccc(C(=O)N[C@@H](CCC(=O)O)C(=O)O)cc1)CN2 (stereo not given in full) ?
A: > 31.4 µM

Q: Quick check: TGI of "O=c1[nH]nc(-c2ccccc2)n1/N=C/c1ccncc1" ?
A: > 100 µM

---

System: MDA-N
Experiment: NCI tumour cell line growth inhibition, 48 h
Recorded TGI values for a group of compounds are listed next.

Q: Short answer please: TGI, MDA-N, entry "O=C1CSc2nc3ccccc3n2/C=N\N1"
A: > 100 µM

Q: Short answer please: TGI, MDA-N, entry "COc1ccc2[nH]c(Cl)c(/C=C3/C(=O)Nc4cc(C)c(OC)cc43)c2c1"
A: 3.5 µM

Q: Short answer please: TGI, MDA-N, entry c1ccc(C2=Nc3nc4ccccc4n3C(c3ccccc3)C2)cc1 (stereo not drawn)
A: > 100 µM

---

System: HCT-116 colon
Experiment: NCI tumour cell line growth inhibition, 48 h
Recorded TGI values for a group of molecules are listed next.
Number only, in µM; omit the unit.

O=C(c1ccc2ncc(-c3nc(NC4CC4)ncc3F)n2c1)N1CCOCC1 | 10.4
O=C(O)/C(=C/c1c(O)ccc2ccccc12)c1csc(-c2nc(/C(=C\c3c(O)ccc4ccccc34)C(=O)O)cs2)n1 | 23.3

Q: Quick check: TGI of CC(C)C(C/C=C1\CC(CO)(COC(=O)c2ccccc2)OC1=O)C(C)C (stereo not given) ?
A: 31

---

Test system: KM12 colon
Test: NCI tumour cell line growth inhibition, 48 h
Recorded TGI values for a group of compounds are listed next.

Consider the following illustrative entries.
Cc1ccsc1/C=N/Nc1cc(C)c2cccc(C)c2n1 | > 100 µM
CC(C)C(C/C=C1\CC(CO)(COC(=O)c2ccccc2)OC1=O)C(C)C (stereo unspecified) | 35.6 µM
Cn1c(=O)c2c(nc3n(Cc4ccccc4)c(=O)c(NCCBr)cn23)n(C)c1=O | > 100 µM
COc1c(C(=O)O)oc2c(OC)cccc12 | > 100 µM
CN1c2ccccc2N(C)C2C1N(C)c1ccccc1N2C (stereo unspecified) | > 100 µM

Q: Quick check: TGI of "C/C(=N/NC(=S)Nc1ccccc1Cl)c1cccc(/C(C)=N\NC(=S)Nc2ccccc2Cl)n1" ?
A: > 100 µM

---

Recorded TGI values for a group of compounds are listed next.
Test system: SR leukemia
Experiment: NCI tumour cell line growth inhibition, 48 h
Number only, in µM; omit the unit.

CC(C)(C)NCc1cc(C(C)(C)C)cc(-c2ccc(Cl)cc2)c1O | 40.4
C=C1C(=O)OC2CC1C(O)C/C(C)=C/CC/C(C)=C/C(O)CC2C (configuration not stated) | 2.61
Cc1ccc(OCC2OC(n3cnc4nc(Cl)nc(Cl)c43)CC2Oc2ccc(C)cc2)cc1 (configuration not stated) | 5.65
COc1cc(/C=C\[N+](=O)[O-])ccc1OCc1ccccc1 | 5.27
COc1ccc2c(Nc3ccc(NS(C)(=O)=O)cc3)c3ccccc3nc2c1 | 6.46

Q: Quick check: TGI of "COc1cccc(-c2ccc3c4c2O[C@H]2c5[nH]c6ccccc6c5C[C@@]5(O)[C@@H](C3)N(CC3CC3)CC[C@]425)c1" ?
A: 5.51

Q: Quick check: TGI of "NC1CCN(c2nc(Nc3cccc(C(F)(F)F)c3)c3c(=O)[nH]ccc3n2)CC1" ?
A: 2.82

Q: Quick check: TGI of CC(=O)O[C@H]1CC[C@@]2(C)C(=CC[C@H]3C4=CC=C(C(C)=O)[C@@]4(C)CCC32)C1 (some centres not stated) ?
A: 81

Q: Quick check: TGI of COC1CC2C=C(C)/C=C/C=C/C(=O)NC(c3ccccc3)C/C=C/CCC(O)CC(=O)C2=C1O (configuration not stated) ?
A: 0.794

---

Tested on: LXFL 529 NSCLC
Experiment: NCI tumour cell line growth inhibition, 48 h
Reported Endpoint: TGI

Consider the following illustrative entries.
CCNC(=O)C#CC(=O)NCC | > 100 µM
COC1=C(N=[N+]=[N-])C(=O)c2ncccc2C1=O | 3.15 µM

Q: Quick check: TGI of "COc1cc2noc(-c3ccccc3)c2cc1OC" ?
A: > 100 µM

---

Tested on: OVCAR-5 ovarian
Assay: NCI tumour cell line growth inhibition, 48 h
Reported Endpoint: TGI

Cc1nc2ccc(Nc3nc(NCCN4CCOCC4)nc(Nc4ccc(F)cc4)n3)cc2n1Cc1ccccc1 | 13.6 µM

Q: Short answer please: TGI, OVCAR-5 ovarian, entry CC(C)[C@@H]1CC[C@@H](C)C[C@H]1OC(=O)/C=C1/C2C=CC(O2)C1C(=O)O[C@@H]1C[C@H](C)CC[C@H]1C(C)C (stereo not given in full)
A: > 100 µM

Q: Short answer please: TGI, OVCAR-5 ovarian, entry "Cc1ccnc2[nH]c(-c3cccc(Cl)c3)cc(=O)c12"
A: > 100 µM

Q: Short answer please: TGI, OVCAR-5 ovarian, entry COc1cc(C2SCC(=O)N2c2ccc(-n3c(-c4ccccc4)nc4ccccc4c3=O)cc2)ccc1O (stereo not given)
A: > 100 µM

Q: Short answer please: TGI, OVCAR-5 ovarian, entry "O=C(N=C1SCCN1C(=O)C(C(F)(F)F)C(F)(F)F)C(C(F)(F)F)C(F)(F)F"
A: > 100 µM

---

Tested on: MOLT-4 leukemia
A correct response names exactly one class from yes (1) = active, no (0) = inactive

Reference set, count: 6
COC1CC2C=C(C)/C=C/C=C/C(=O)NC(c3ccccc3)C/C=C/CCC(O)CC(=O)C2=C1O (stereo not drawn) | yes (1)
O=[N+]([O-])c1ccc(N/N=C/c2c(O)ccc3ccccc23)nc1 | no (0)
CC1=C[C@H]2c3c(c(O)c(O)c4oc5ccccc5c(=O)c34)[C@H](c3cc(O)c(O)c4oc5ccccc5c(=O)c34)[C@H]2C(C)(C)C1 | no (0)
COc1ccc(-c2cc(/C=C3\C(=O)Nc4ccc(Cl)cc43)[nH]n2)cc1 | no (0)
OCC1OC(n2ccc3c(NO)ncnc32)C(O)C1O (stereo not drawn) | yes (1)
CCOC(=O)C(=Cc1ccccc1[N+](=O)[O-])C(=O)OCC | no (0)

Q: For "N#Cc1cnc2cc(OC[C@@H](O)CO)c(NC(=O)CC3CSSC3)cc2c1Nc1ccc(OCc2cccc(F)c2)c(Cl)c1" , what call appears in the results of this test?
A: yes (1)

Q: For "O=C(c1ccc2ncc(-c3nc(NC4CC4)ncc3F)n2c1)N1CCOCC1" , what call appears in the results of this test?
A: no (0)

---

Recorded TGI values for a group of compounds are listed next.
Test system: DLD-1 colon
Assay: NCI tumour cell line growth inhibition, 48 h

Consider the following illustrative entries.
CCCCCCCC(=O)OC(CBr)COC(=O)C(C)(C)C (stereo unspecified) | > 100 µM
O=C(NCCCCCCNC(=O)n1cc(F)c(=O)[nH]c1=O)NCCCOCCOCCCNC(=O)C(O)C(O)C(O)C(O)CO (stereo unspecified) | > 2.5 µM
NC(=O)N/N=C/C(/C=N/NC(N)=O)[N+](=O)[O-] | > 100 µM
C(CCC[Te][Te]CCCCCCOC1CCCCO1)CCOC1CCCCO1 (stereo unspecified) | 45.8 µM
COc1ccc(C(N)=O)cc1N=NN(C)C | > 100 µM

Alright, here's another compound for you.
Q: Quick check: TGI of CCCCCCCCCCCCCCCCSCC(COC)COP(=O)([O-])OCC[N+](C)(C)C (stereo unspecified) ?
A: 11.2 µM

---

System: A549 NSCLC
Assay: NCI tumour cell line growth inhibition, 48 h
Recorded TGI values for a group of molecules are listed next.
Number only, in µM; omit the unit.

O=C(/C=C/c1ccsc1)c1ccco1 | 11.7
ClC(Cl)c1nc(-c2cccnc2)n2nc(-c3ccccc3)cc2n1 | 9
Cc1cc(CNC(=O)OCc2ccccc2)c(C)c2c1Oc1ccccc1O2 | 97.7

Q: Quick check: TGI of "O=C(Nc1ccc(F)cc1)c1c(NC(=O)C(F)(F)F)sc2c1CCCCC2" ?
A: 12

Q: Quick check: TGI of "ClC(Cl)(Cl)C1=N[C@H]2[C@H](Br)[C@@H]3O[C@@H](c4ccccc4)[C@H](c4ccccc4)O[C@@H]3[C@H]2O1" ?
A: 49.2
